endpointLabel: glass transition temperature (°C)

*c1ccc(/C=N/c2cccc(/N=C/c3ccc(-c4ccc(*)s4)cc3)c2)cc1 (repeat unit)	150.00
*C(=O)Nc1ccccc1NC(=O)c1ccc(N2C(=O)c3ccc(*)cc3C2=O)cc1 (repeat unit)	215.00
*c1ccc(Oc2ccc(Oc3ccc(N4C(=O)c5ccc(Oc6ccc7c(c6)C(=O)N(*)C7=O)cc5C4=O)cc3C(F)(F)F)cc2)cc1 (repeat unit)	232.30
*Oc1ccc(Oc2ccc(C(=O)c3ccc(-c4ccc(C(=O)c5ccc(*)cc5)cc4)cc3)cc2)cc1-c1cccc(C)c1 (repeat unit)	170.00
*C(=O)c1ccc2c(c1)C(=O)N(c1ccc(-c3ccc(N4C(=O)c5ccc(*)cc5C4=O)c(OCCCCCCOc4ccc(/C=C/c5ccc(F)cc5)cc4)c3)cc1OCCCCCCOc1ccc(/C=C/c3ccc(F)cc3)cc1)C2=O (repeat unit)	128.00
*CC(*)c1ccc(OCC)cc1 (repeat unit)	86.00
*C(F)(F)C1(F)C(F)(F)C(*)(F)C(F)(F)C(F)(Cl)C1(F)F (repeat unit)	147.00
*Oc1ccc(C(c2ccc(Oc3ccc(C(=O)c4cc(C(=O)c5ccc(*)cc5)cc(C(C)(C)C)c4)cc3)cc2)(C(F)(F)F)C(F)(F)F)cc1 (repeat unit)	181.00

I: *C(=O)Nc1ccc(Oc2cccc(Oc3ccc(NC(=O)c4ccc5c(c4)C(=O)N(c4ccc(Oc6cccc(Oc7ccc(N8C(=O)c9ccc(*)cc9C8=O)cc7)c6C#N)cc4)C5=O)cc3)c2)cc1 (repeat unit)
II: *c1cccc(OCCCCCCCCCOc2cccc(N3C(=O)c4ccc(-c5cccc6c5C(=O)N(*)C6=O)cc4C3=O)c2)c1 (repeat unit)
III: *Oc1ccc(CC(NC(=O)CCc2ccc(OC(=O)CCCCCCCCC(*)=O)cc2)C(=O)OCCCCCC)cc1 (repeat unit)
Hi! Can you put these in order of glass transition temperature, lowest number first? Answer by listing the labels in the requested order. III, II, I
(III: 22.00 °C, II: 134.00 °C, I: 217.00 °C)

====

endpointLabel: glass transition temperature (°C)

Worked examples, 5 molecules total:
*/C=C/c1ccc2c(c1)C(CCCCCCOc1ccc3ccc(=O)oc3c1)(CCCCCCOc1ccc3ccc(=O)oc3c1)c1cc(/C=C/c3ccc4c(c3)C(CCCCCC)(CCCCCC)c3cc(*)ccc3-4)ccc1-2 (repeat unit)	115.00
*c1ccc(Oc2ccc(C(=O)c3cccc(C(=O)c4ccc(Oc5ccc(-c6cc(*)n(-c7ccccc7)n6)cc5)cc4)c3)cc2)cc1 (repeat unit)	190.00
*c1c(C)cc(C(c2cccc(C(F)(F)F)c2)c2cc(C)c(N3C(=O)c4ccc(-c5ccc6c(c5)C(=O)N(*)C6=O)cc4C3=O)c(C)c2)cc1C (repeat unit)	312.90
*Oc1ccc(C(C)(C)c2ccc(OC(=O)CCCCC(*)=O)c(C)c2)cc1C (repeat unit)	33.50
*Cc1ccc(CNC(=O)CC(C)(C)CC(C)C(=O)N*)cc1 (repeat unit)	125.00

1: *Oc1ccc(Oc2ccc(C(=O)c3c(C(=O)c4ccc(*)cc4)c(-c4ccc(F)cc4)c(-c4ccc(F)cc4)c(-c4ccc(F)cc4)c3-c3ccc(F)cc3)cc2)cc1 (repeat unit)
2: *CC(*)C(=O)OCC(F)(F)C(F)(F)C(F)(F)F (repeat unit)
3: *CCOCCOCCOC(=O)CCCCC(=O)O* (repeat unit)
4: *c1ccc(C2(c3ccc(N4C(=O)c5ccc(-c6ccc7c(c6)C(=O)N(*)C7=O)cc5C4=O)cc3)c3ccccc3-c3ccccc32)cc1 (repeat unit)
5: */C=C/C1CC(*)C(C(=O)Oc2ccccc2)C1C(=O)Oc1ccccc1 (repeat unit)
Hi! Can you put these in order of glass transition temperature, lowest number first? Answer by listing the labels in the requested order. 3, 2, 5, 1, 4

Data origin: the PolyMetriX glass transition set
